The values you see were collected from patent US11752116B2.

- Test system: DENV-2
- protocol_notes: Cell-based flavivirus immunodetection assay in BHK-21 cells, DENV-2
- assay_conditions: Dengue virus, DENV2, BHK-21, 48 h, read-out: EC50, DENV-2 replication
quantity: pEC50
Scale for pEC50: -log10 of concentration given in mol/L; no unit attached.

Can you look up the measured pEC50 of CC1=C(/C=C/C(C)=C/C=C/C(C)=C/C(=O)Nc2ccc(O)cc2)C(C)(C)CCC1 [4-HPR, N-(4-hydroxyphenyl) retinamide] for me?
5.65

----------
- protocol_notes: Cytotoxicity analysis in PBMCs
- Assay type: cell-based
- assay_conditions: human
quantity: CC50 at 48 h

Requested read-out: CC50 at 48 h. Entry: CC1=C(/C=C/C(C)=C/C=C/C(C)=C/C(=O)Nc2ccc(O)cc2)C(C)(C)CCC1 [4-HPR, N-(4-hydroxyphenyl) retinamide]
> 13 µM
